# experimental-target: human-cGAS (h-cGAS) (Homo sapiens)
measured-quantity: IC50

The examples below pair each entry with its known result.
| molecule | IC50 |
| --- | --- |
| CSc1nnc(NC(=O)c2nnc(N3CCCCC3)o2)s1 [Compound 108] | 500 to 1000 nM |
| CSc1nnc(NC(=O)c2onc3c2CCc2scnc2-3)s1 [Compound 171] | ≥ 1000 nM |
| CSc1nnc(NC(=O)c2nnn(-c3ccccc3F)n2)s1 [Compound 138] | 500 to 1000 nM |
| O=C(Nc1nnc(-c2ccccc2Cl)s1)c1onc2c(C(=O)O)cccc12 [Compound 178] | < 100 nM |
| CSc1nnc(NC(=O)c2cc(-c3ccccc3)no2)s1 [Compound 208] | 500 to 1000 nM |
| CSc1nnc(NC(=O)c2cc3ccccc3c(=O)o2)s1 [Compound 207] | ≥ 1000 nM |

[ask] Give human-cGAS (h-cGAS) (Homo sapiens) IC50 for CSc1nnc(NC(=O)c2nnc(N3CCCC(O)C3)o2)s1 (centres unmarked) [Compound 109]
[reply] ≥ 1000 nM

[ask] Give human-cGAS (h-cGAS) (Homo sapiens) IC50 for CSc1nnc(NC(=O)c2cc(-c3ccc(C)cc3)no2)s1 [Compound 215]
[reply] 500 to 1000 nM

[ask] Give human-cGAS (h-cGAS) (Homo sapiens) IC50 for CSc1nnc(NC(=O)c2cc(-c3ccccc3F)cc(=O)o2)s1 [Compound 237]
[reply] 100 to 500 nM

----------
# experimental-target: UniProt:Q8N884
pIC50: −log10 of the molar value.
measured-quantity: pIC50

| compound | experimental-target | pIC50 |
| --- | --- | --- |
| O=C(Nc1nnc(-c2ccccc2C(F)(F)F)s1)c1onc2ccccc12 | UniProt:Q8N884 | 6.30 to 7.00 |

[ask] Give UniProt:Q8N884 pIC50 for CSc1nnc(NC(=O)c2cc(-c3ccccc3Cl)no2)s1
[reply] 6.00 to 6.30

[ask] Give UniProt:Q8N884 pIC50 for O=C(Nc1nncs1)c1onc2c1ccc1cccnc12
[reply] 6.00 to 6.30

----------
IC50, human-cGAS (h-cGAS) (Homo sapiens, UniProt Q8N884), per-entry values.

| molecule | measured-quantity | endpoint-value |
| --- | --- | --- |
| CSc1nnc(NC(=O)c2cc(Cc3ccccc3)no2)s1 | IC50 | 500 to 1000 nM |
| CSc1nnc(NC(=O)c2nnc(N3CCCC3c3ccccc3)o2)s1 (centres unmarked) | IC50 | 100 to 500 nM |

Now turn to the next molecule.
[ask] Give human-cGAS (h-cGAS) (Homo sapiens, UniProt Q8N884) IC50 for CSc1nnc(NC(=O)c2nnc(-c3cccnc3)o2)s1
[reply] 500 to 1000 nM

----------
pIC50, human-cGAS (h-cGAS) (Homo sapiens), per-entry values.
pIC50: −log10 of the molar value.

The examples below pair each entry with its known result.
| structure-as-smiles | pIC50 |
| --- | --- |
| O=C(Nc1nnc(-c2ccccc2Cl)s1)c1nnn[nH]1 | ≤ 6.00 |
| CCc1nnc(NC(=O)c2onc3c2ccc2cccnc23)s1 | 6.30 to 7.00 |
| CSc1nnc(NC(=O)c2nc(Cc3ccccc3)no2)s1 | 6.00 to 6.30 |
| CONC(=O)c1cc(C(=O)Nc2nnc(-c3ccccc3Cl)s2)on1 | > 7.00 |

Now turn to the next compound.
[ask] Fill in: pIC50 of CC(C)c1cc(C(=O)Nc2nnc(-c3ccccc3Cl)s2)on1 is ___
[reply] 6.30 to 7.00

----------
// values below are reported pIC50
# experimental-target: human-cGAS (h-cGAS) (Homo sapiens, UniProt Q8N884)
# Sequence (Q8N884 whole entry): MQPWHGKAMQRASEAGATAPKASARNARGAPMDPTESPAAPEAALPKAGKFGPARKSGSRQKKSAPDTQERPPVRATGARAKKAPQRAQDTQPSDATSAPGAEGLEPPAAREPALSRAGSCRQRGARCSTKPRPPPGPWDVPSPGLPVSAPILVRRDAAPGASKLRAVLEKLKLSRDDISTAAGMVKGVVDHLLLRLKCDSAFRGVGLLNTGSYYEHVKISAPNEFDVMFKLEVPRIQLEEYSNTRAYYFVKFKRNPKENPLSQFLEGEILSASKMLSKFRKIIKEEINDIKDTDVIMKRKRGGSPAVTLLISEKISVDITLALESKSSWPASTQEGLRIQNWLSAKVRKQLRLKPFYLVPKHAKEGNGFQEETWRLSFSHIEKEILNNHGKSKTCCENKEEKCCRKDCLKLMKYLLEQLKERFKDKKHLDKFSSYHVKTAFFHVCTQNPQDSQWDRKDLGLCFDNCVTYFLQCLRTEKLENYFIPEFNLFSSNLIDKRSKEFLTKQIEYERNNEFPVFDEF
# assay-text: hcGAS Kinase-Glo Assay
# Assay type: biochemical
# experimental-setup: 40 nM h-cGAS, 100 μM ATP, 100 μM GTP, 25 nM dsDNA, 3 h incubation, read-out: hcGAS potency IC50
pIC50: −log10 of the molar value.

The examples below pair each entry with its known result.
| structure-as-smiles | experimental-target | measured-quantity | endpoint-value |
| --- | --- | --- | --- |
| O=C(Nc1nnc(-c2ccccc2C(F)F)s1)c1onc2ccccc12 | human-cGAS (h-cGAS) (Homo sapiens, UniProt Q8N884) | pIC50 | 6.00 to 6.30 |
| CSc1nnc(NC(=O)c2onc3ccc(Nc4ccccc4)cc23)s1 | human-cGAS (h-cGAS) (Homo sapiens, UniProt Q8N884) | pIC50 | 6.00 to 6.30 |
| O=C(Nc1nnc(C(F)(F)F)s1)c1onc2c1ccc1cccnc12 | human-cGAS (h-cGAS) (Homo sapiens, UniProt Q8N884) | pIC50 | 6.30 to 7.00 |
| Cc1ccccc1-c1nnc(NC(=O)c2onc3ccccc23)s1 | human-cGAS (h-cGAS) (Homo sapiens, UniProt Q8N884) | pIC50 | 6.00 to 6.30 |
| CSc1nnc(NC(=O)c2noc(N3CCCC(C)(C)C3)n2)s1 | human-cGAS (h-cGAS) (Homo sapiens, UniProt Q8N884) | pIC50 | ≤ 6.00 |
| O=C(Nc1nnc(-c2ccccc2Cl)s1)c1onc2c1ccc1cccnc12 | human-cGAS (h-cGAS) (Homo sapiens, UniProt Q8N884) | pIC50 | > 7.00 |

[ask] Fill in: pIC50 of CSc1nnc(NC(=O)c2nnc(Cc3cccc(Cl)c3)o2)s1 is ___
[reply] ≤ 6.00

[ask] Fill in: pIC50 of O=C(Nc1nnc(-c2cccc(F)c2)s1)c1onc2ccccc12 is ___
[reply] ≤ 6.00

[ask] Fill in: pIC50 of Cc1cccc(-c2nnc(NC(=O)c3onc4ccccc34)s2)c1 is ___
[reply] ≤ 6.00

----------
IC50, human-cGAS (h-cGAS) (Homo sapiens), per-entry values.

| structure-as-smiles | IC50 |
| --- | --- |
| O=C(O)c1cc(C(=O)Nc2nnc(-c3ccccc3Cl)s2)on1 | < 100 nM |
| CSc1nnc(NC(=O)c2nnn(-c3ccccc3)n2)s1 | 500 to 1000 nM |

[ask] Give human-cGAS (h-cGAS) (Homo sapiens) IC50 for CSc1nnc(NC(=O)c2onc3ccc(C(=O)c4ccccc4)cc23)s1
[reply] ≥ 1000 nM

[ask] Give human-cGAS (h-cGAS) (Homo sapiens) IC50 for CSc1nnc(NC(=O)c2onc3ccc(Oc4ccccc4)cc23)s1
[reply] 500 to 1000 nM

[ask] Give human-cGAS (h-cGAS) (Homo sapiens) IC50 for CSc1nnc(NC(=O)c2onc3ccccc23)s1
[reply] 500 to 1000 nM

----------
IC50, human-cGAS (h-cGAS) (Homo sapiens, UniProt Q8N884), per-entry values.

The examples below pair each entry with its known result.
| compound | IC50 |
| --- | --- |
| COCCOc1cc(C(=O)Nc2nnc(-c3ccccc3Cl)s2)on1 [Compound 175] | 100 to 500 nM |
| CSc1nnc(NC(=O)c2cc(Oc3ccccc3)cc(=O)o2)s1 [Compound 202] | 500 to 1000 nM |

[ask] Fill in: IC50 of O=C(NO)c1cc(C(=O)Nc2nnc(-c3ccccc3Cl)s2)on1 [Compound 90] is ___
[reply] 100 to 500 nM

[ask] Fill in: IC50 of CSc1nnc(NC(=O)c2onc3cc(CO)ccc23)s1 [Compound 194] is ___
[reply] 500 to 1000 nM

[ask] Fill in: IC50 of CSc1nnc(NC(=O)c2nnc(N3CCCC(C)(C)C3)o2)s1 [Compound 119] is ___
[reply] 500 to 1000 nM

[ask] Fill in: IC50 of O=C(Nc1nnc(-c2ccccc2Cl)s1)c1cc(C(F)(F)F)no1 [Compound 34] is ___
[reply] 500 to 1000 nM

[ask] Fill in: IC50 of CSc1nnc(NC(=O)c2nnc3n2CCN(C(=O)OC(C)(C)C)C3)s1 [Compound 98] is ___
[reply] ≥ 1000 nM

[ask] Fill in: IC50 of COc1cccc(-c2cc(C(=O)Nc3nnc(SC)s3)oc(=O)c2)c1 [Compound 241] is ___
[reply] 100 to 500 nM

[ask] Fill in: IC50 of CSc1nnc(NC(=O)c2cn(CCC(C)(C)C)nn2)s1 [Compound 198] is ___
[reply] ≥ 1000 nM

[ask] Fill in: IC50 of CSc1nnc(NC(=O)c2cc(-c3ccccc3C)cc(=O)o2)s1 [Compound 248] is ___
[reply] 100 to 500 nM

----------
// values below are reported IC50
# experimental-target: human-cGAS (h-cGAS) (Homo sapiens, UniProt Q8N884)

| molecule | IC50 |
| --- | --- |
| CSc1nnc(NC(=O)c2cc(-c3ccc(F)cc3)cc(=O)o2)s1 | 100 to 500 nM |
| N#Cc1cc(C(=O)Nc2nnc(-c3ccccc3Cl)s2)on1 | < 100 nM |

Now turn to the next molecule.
[ask] Give human-cGAS (h-cGAS) (Homo sapiens, UniProt Q8N884) IC50 for CSc1nnc(NC(=O)c2cc(C3CCCC3)no2)s1
[reply] 500 to 1000 nM

Value source: patent US20250002487A1
